# Tested on: male broilers
# measurementProtocol: Study 1: growth performance and carcass responses of male broilers, compounds in feed vs positive and negative controls
# Format: in vivo, chicken
# testSettings: 15 ppm in feed ad libitum, 14 days, male broilers; percent change from negative control; * in cell = not significant
Structures can show the parent of a compound that is named as a salt.
quantityKind: Leg wt % inc. (%)
Kindly answer with a numeric value in %, unit omitted.

>>> measurement("CC(C)(Cc1ccc(Oc2ncccc2C(N)=O)cc1)NC[C@H](O)COc1cccc2[nH]ncc12")
7.9
>>> measurement("CC(C)(Cc1ccc(Oc2ccc(C(=O)N3CCOCC3)cn2)cc1)NC[C@H](O)COc1cccc2[nH]ncc12")
8.2

Please find the next molecule below.
Leg wt % inc. reading for CC(C)(Cc1ccc(Oc2ccccn2)cc1)NC[C@H](O)COc1cccc2c1C(C)(C)C(=O)N2 [Compound 5, hydrochloride] : 8.1

====

# Test system: male broilers
# measurementProtocol: Study 1: growth performance and carcass responses of male broilers, compounds in feed vs positive and negative controls
# Assay type: in vivo, chicken
# testSettings: 15 ppm in feed ad libitum, 14 days, male broilers; percent decrease from negative control; * in cell = not significant
Counter-ions that a name gives are not always drawn.
quantityKind: Fat Pad wt % dec. (%)
Kindly answer with a numeric value in %, unit omitted.

>>> measurement("CC(C)(Cc1ccc(Oc2ccccn2)cc1)NC[C@H](O)COc1cccc2c1C(C)(C)C(=O)N2 [Compound 5, hydrochloride]")
17.4

Please find the next compound below.
Fat Pad wt % dec. reading for CC(C)(Cc1ccc(Oc2ncccc2C(N)=O)cc1)NC[C@H](O)COc1cccc2[nH]ncc12 : 17.8
